Below is a list of entries, each paired with its recorded pest or weed control at 20 g/ha value.
System: ABUTH
Experiment: Post-emergence herbicidal action against ABUTH
Type: in vivo, Abutilon theophrasti
Conditions: Abutilon theophrasti, 504 h, dosage 20 g/ha, visual assessment about 3 weeks after treatment vs untreated controls

compound.structure.string: CCCn1nnnc1NC(=O)c1ccc(C(F)(F)F)c(C(=O)NCC)c1C
pest or weed control at 20 g/ha / %: 90
--
compound.structure.string: CCNC(=O)c1c(C(F)(F)F)ccc(C(=O)Nc2nnnn2C)c1Br
pest or weed control at 20 g/ha / %: 90
--
compound.structure.string: CCn1nnnc1NC(=O)c1ccc(C(F)F)c(C(=O)NC(C)C)c1C
pest or weed control at 20 g/ha / %: 90
--
compound.structure.string: CNC(=O)c1c(C(F)F)ccc(C(=O)Nc2nnnn2C)c1C1CC1
pest or weed control at 20 g/ha / %: 90
--
compound.structure.string: CNC(=O)c1c(C(F)(F)F)ccc(C(=O)Nc2nnnn2C)c1OC
pest or weed control at 20 g/ha / %: 100
--
compound.structure.string: CCn1nnnc1NC(=O)c1ccc(Cl)c(C(=O)NC2CC2)c1Cl
pest or weed control at 20 g/ha / %: 100
--
compound.structure.string: CCn1nnnc1NC(=O)c1ccc(C(F)(F)F)c(C(=O)NC(C)C)c1C
pest or weed control at 20 g/ha / %: 90
--
compound.structure.string: CNC(=O)c1c(C(F)F)ccc(C(=O)Nc2nnnn2C)c1C
pest or weed control at 20 g/ha / %: 100
--
compound.structure.string: CNC(=O)c1c(Br)ccc(C(=O)Nc2nnnn2C)c1Br
pest or weed control at 20 g/ha / %: 90
--
compound.structure.string: CCNC(=O)c1c(C(F)(F)F)ccc(C(=O)Nc2nnnn2CC)c1C
pest or weed control at 20 g/ha / %: 100
--
compound.structure.string: CCNC(=O)c1c(C(F)F)ccc(C(=O)Nc2nnnn2C)c1OC
pest or weed control at 20 g/ha / %: 80
--
compound.structure.string: Cc1nnc(NC(=O)c2ccc(C(F)(F)F)c(C(=O)NC(C)C)c2C)o1
pest or weed control at 20 g/ha / %: 90
--
compound.structure.string: CCNC(=O)c1c(C(F)F)ccc(C(=O)Nc2nnnn2CC)c1Cl
pest or weed control at 20 g/ha / %: 90
--
compound.structure.string: Cn1nnnc1NC(=O)c1ccc(C(F)(F)F)c(C(N)=O)c1Cl
pest or weed control at 20 g/ha / %: 90
--
compound.structure.string: CCn1nnnc1NC(=O)c1ccc(Br)c(C(=O)NC)c1Cl
pest or weed control at 20 g/ha / %: 90
--
compound.structure.string: CC(=O)NC(=O)c1c(C(F)(F)F)ccc(C(=O)Nc2nnnn2C)c1Cl
pest or weed control at 20 g/ha / %: 80
--
compound.structure.string: CNC(=O)c1c(C(F)F)ccc(C(=O)Nc2nnnn2C)c1Br
pest or weed control at 20 g/ha / %: 80
--
compound.structure.string: Cn1nnnc1NC(=O)c1ccc(C(F)(F)F)c(C(=O)NCC(F)(F)F)c1Br
pest or weed control at 20 g/ha / %: 80

###

Below is a list of entries, each paired with its recorded Pre-emergence action against VIOTR in % value.
Test system: VIOTR
Experiment: Pre-emergence herbicidal action against VIOTR
Assay type: in vivo, Viola tricolor
Settings: dosage 20 g/ha

compound: Cn1nnnc1NC(=O)c1ccc(C(F)(F)F)c(C(=O)NCC(F)F)c1Br
subject.of.test: VIOTR
Pre-emergence action against VIOTR in % / %: 100
//
compound: CCn1nnnc1NC(=O)c1ccc(C(F)F)c(C(=O)NC2CC2)c1C1CC1
subject.of.test: VIOTR
Pre-emergence action against VIOTR in % / %: 100
//
compound: CCNC(=O)c1c(C(F)F)ccc(C(=O)Nc2nnco2)c1Cl
subject.of.test: VIOTR
Pre-emergence action against VIOTR in % / %: 90
//
compound: CCn1nnnc1NC(=O)c1ccc(C(F)(F)F)c(C(=O)NC(C)C2CC2)c1C (stereo not shown)
subject.of.test: VIOTR
Pre-emergence action against VIOTR in % / %: 100

###

Tested on: AMARE
Experiment: Post-emergence herbicidal action against AMARE
Format: in vivo, Amaranthus retroflexus
Conditions: Amaranthus retroflexus, 504 h, 20 g/ha, visual assessment about 3 weeks after treatment, 100% = plants have died, 0% = like control plants

compound.structure.string: CCCn1nnnc1NC(=O)c1ccc(C(F)(F)F)c(C(=O)NCC)c1C
units.text: %
pest or weed control at 20 g/ha: 90

compound.structure.string: Cc1c(C(=O)Nc2nnnn2C)ccc(C(F)F)c1C(=O)NC1CC1
units.text: %
pest or weed control at 20 g/ha: 100

compound.structure.string: CCn1nnnc1NC(=O)c1ccc(Br)c(C(=O)NC2CC2)c1Cl
units.text: %
pest or weed control at 20 g/ha: 100

###

Tested on: AMARE
Test: Pre-emergence herbicidal action against AMARE
Type: in vivo, Amaranthus retroflexus
Details: Amaranthus retroflexus, 504 h, 80 g/ha, scored visually after 3 weeks vs untreated controls, 100% = plants have died, 0% = like control plants
From the text: Seeds of monocotyledonous and dicotyledonous weed plants and crop plants are laid out in sandy loam soil in wood-fiber pots and covered with soil. […] The damage to the test plants is scored visually after a test period of 3 weeks by comparison with untreated controls (herbicidal activity in percent (%): 100% activity=the plants have died, 0% activity=like control plants). […]
Below is a list of entries, each paired with its recorded pest or weed control at 80 g/ha value.

compound: CCc1c(C(=O)Nc2nnnn2C)ccc(C(F)F)c1C(=O)NC1CC1 [Example 1-279]
pest or weed control at 80 g/ha / %: 100

compound: CCCNC(=O)c1c(C(F)F)ccc(C(=O)Nc2nnnn2C)c1C [Example 1-345]
pest or weed control at 80 g/ha / %: 100

compound: CCCNC(=O)c1c(C(F)(F)F)ccc(C(=O)Nc2nnnn2C)c1Cl [Example 1-136]
pest or weed control at 80 g/ha / %: 100

compound: CCn1nnnc1NC(=O)c1ccc(C(F)(F)F)c(C(=O)NC)c1Br [Example 2-207]
pest or weed control at 80 g/ha / %: 100

compound: CCn1nnnc1NC(=O)c1ccc(C(F)(F)F)c(C(N)=O)c1Cl [Example 2-338]
pest or weed control at 80 g/ha / %: 100

###

Test system: PHBPU
Assay: Post-emergence herbicidal action against PHBPU
Type: in vivo, Pharbitis purpurea
Settings: Ipomoea purpurea, 504 h, dosage 20 g/ha
Protocol: Seeds of monocotyledonous and dicotyledonous weed and crop plants are laid out in sandy loam soil in wood-fiber pots, covered with soil and cultivated in a greenhouse under good growth conditions. 2 to 3 weeks after sowing, the test plants are treated at the one-leaf stage. […]
Below is a list of entries, each paired with its recorded pest or weed control at 20 g/ha value.

compound.structure.string: Cn1nnnc1NC(=O)c1ccc(C(F)(F)F)c(C(=O)NC2CC2)c1C1CC1
units.text: %
pest or weed control at 20 g/ha: 80
//
compound.structure.string: CCn1nnnc1NC(=O)c1ccc(Cl)c(C(=O)NC2CC2)c1Cl
units.text: %
pest or weed control at 20 g/ha: 90
//
compound.structure.string: CNC(=O)c1c(C(F)(F)F)ccc(C(=O)Nc2nnnn2C)c1Cl
units.text: %
pest or weed control at 20 g/ha: 100
//
compound.structure.string: CNC(=O)c1c(C(F)F)ccc(C(=O)Nc2nnnn2C)c1C
units.text: %
pest or weed control at 20 g/ha: 80
//
compound.structure.string: CNC(=O)c1c(C(F)F)ccc(C(=O)Nc2nnnn2C)c1Br
units.text: %
pest or weed control at 20 g/ha: 80
//
compound.structure.string: CNC(=O)c1c(I)ccc(C(=O)Nc2nnnn2C)c1Cl
units.text: %
pest or weed control at 20 g/ha: 80

###

System: MATIN
Test: Post-emergence herbicidal action against MATIN
Format: in vivo, Matricaria inodora
Conditions: dosage 5 g/ha
Below is a list of entries, each paired with its recorded Post-emergence action against MATIN in % value.

compound.structure.string: CCn1nnnc1NC(=O)c1ccc(I)c(C(=O)NC)c1Cl
units.text: %
Post-emergence action against MATIN in %: 80

compound.structure.string: CCn1nnnc1NC(=O)c1ccc(C(F)(F)F)c(C(=O)NC)c1C
units.text: %
Post-emergence action against MATIN in %: 90

compound.structure.string: CCNC(=O)c1c(C(F)F)ccc(C(=O)Nc2nnnn2CC)c1OC
units.text: %
Post-emergence action against MATIN in %: 80

###

Tested on: AVEFA
Assay: Pre-emergence herbicidal action against AVEFA
Assay type: in vivo, Avena fatua
Conditions: 80 g/ha, pre-emergence
Below is a list of entries, each paired with its recorded Pre-emergence action against AVEFA in % value.

compound.structure.string: CCNC(=O)c1c(C(F)F)ccc(C(=O)Nc2nnnn2CC)c1SC
Pre-emergence action against AVEFA in % (%): 90

compound.structure.string: CCn1nnnc1NC(=O)c1ccc(S(C)(=O)=O)c(C(=O)NC2CC2)c1Cl
Pre-emergence action against AVEFA in % (%): 100

compound.structure.string: Cc1nnc(NC(=O)c2ccc(C(F)(F)F)c(C(=O)NC3CC3)c2Cl)o1
Pre-emergence action against AVEFA in % (%): 90

compound.structure.string: CCc1c(C(=O)Nc2nnnn2CC)ccc(C(F)(F)F)c1C(=O)NC1CC1
Pre-emergence action against AVEFA in % (%): 90
